target: HIV capsid protein C-terminal part (Human immunodeficiency virus type 1 group M subtype B, UniProt P12493); assay: Isothermal titration calorimetry (ITC), C-terminal part; type: binding; conditions: dissociation constant, single molecule binds to dimeric C-terminal part; estimated
result-type: Kd (nM)
Answer format: numeric, nM implied, no suffix.

Task: Requested field: Kd. Item: CCOC(=O)c1ccc(Nc2nc(-c3ccncc3)nc3ccccc23)cc1
Output: 26

* * *

biological target: CA (Human immunodeficiency virus type 1 group M subtype B, UniProt P12493); construct: a fusion protein of CA with glutathione-S-transferase (CA-GST); assay: ALPHA screen (AlphaScreen): inhibition of CAI binding to CA; set-up: species or system HIV-1; conditions: CAI-biotin peptide / CA-GST; compounds screened at 0.5-100 µM; read-out: α screen IC50
result-type: pIC50
# pIC50 is unitless: minus log10 of the molar concentration; print number only

Would you please look over these solved cases?
structure-notation	measured
Cn1nnc2cc(Nc3nc(-c4ccccn4)nc4ccccc34)ccc21	4.47
O=[N+]([O-])c1cc(F)ccc1Nc1nc(-c2cccnc2)nc2ccccc12	4.84
Fc1cc(Nc2nc(-c3cccnc3)nc3ccccc23)c(F)cc1Br	4.79
Cn1nc2ccc(Nc3nc(-c4ccncc4)nc4ccccc34)cc2n1	4.01
O=[N+]([O-])c1ccc(O)c(Nc2nc(-c3ccncc3)nc3ccccc23)c1	4.99
CN(C)c1ccc(Nc2nc(-c3ccc(Cl)cc3)nc3ccccc23)cc1	4.47
O=C(O)c1ccc(Nc2nc(-c3cccnc3)nc3ccccc23)c(O)c1	4.52
Cn1nnc2cc(Nc3cc(-c4cccnc4)nc4ccccc34)ccc21	4.22

Task: Requested field: pIC50. Item: Cn1nnc2cc(Nc3nc(-c4ccncc4)nc4ccccc34)ccc21
Output: 4.76

Task: Requested field: pIC50. Item: Clc1ccc(-c2nc(Nc3ccc4[nH]nnc4c3)c3ccccc3n2)cc1
Output: 5.30

Task: Requested field: pIC50. Item: CNc1ccc([N+](=O)[O-])cc1Nc1nc(-c2ccncc2)nc2ccccc12
Output: 5.33
